test: NCI Yeast Anticancer Drug Screen. Data for the sgs1 mgt1 strain (AID 161);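 also: 0% = growth of cultures given vehicle only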; conditions: S. cerevisiae sgs1 mgt1 strain, at 50.0 µM, stronger effect = higher value
About 79,000 compounds went through this panel and 15% of them were active in at least one assay; those are over-represented in the sample as a whole.
Each entry below carries its recorded growth inhibition.
Provide the reading as a plain figure in %.

1) Cc1c2ccccc2c(C)n2c1nc1cc(Cl)c(Cl)cc12
89.3
2) CN(C)c1ccccc1[CH2][Ga]([Cl])[CH2]c1ccccc1N(C)C
90.8

Now look at this one.
Reported growth inhibition for `COc1ccccc1/C=C/c1ccnc2ccccc12` : what is it? 88

----------
test: NCI Yeast Anticancer Drug Screen. Data for the rad50 strain (AID 155);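 also: 0% = growth of vehicle-only cultures of the same strain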; conditions: S. cerevisiae rad50 strain growth inhibition; at 5.0 µM (retest, dose inferred, filed as 0.5)
This is part of a sample that, as a whole, favours compounds with a hit. Of some 79,000 tested, about 15% had one in any assay. The source made the active and inactive calls. Rule as the data show it: active = growth inhibition above about 70%; inactive = the rest. Where a SMILES comes first, the peptide text is derived from it. The star is where a group is joined. Cbz = O=C(OCc1ccccc1)*; Boc = CC(C)(C)OC(=O)*; OSu = O=C1CCC(=O)N1O*; Bn = c1ccc(C*)cc1
Field 'call' accepts yes (1) = active, no (0) = inactive

1. COc1ccc(C(=O)[O][Sn]([c]2ccccc2)([c]2ccccc2)[c]2ccccc2)c(OC)c1OC
yes (1)
2. Cc1ccc(S(=O)(=O)CC2(Br)CCc3ccccc3C2=O)cc1 (configuration not stated)
no (0)
3. CCCCCCCCCCCCO
no (0)
4. O=C(CC(C[N+](=O)[O-])c1ccc2c(c1)OCO2)c1ccccc1 (configuration not stated)
no (0)
5. CN(C)C(=S)/N=c1\ssc(=S)n1-c1ccccc1
no (0)
6. CCC[CH2][Sn]1([CH2]CCC)[O]CC([CH2][Sn]([c]2ccccc2)([c]2ccccc2)[c]2ccccc2)[O]1 (configuration not stated)
yes (1)
7. C=CCOc1ccc(C2(c3ccc(OCC=C)cc3)C(=O)Nc3ccccc32)cc1
no (0)
8. N#CCCN(CCC#N)Cc1cc(-c2ccccc2)ccc1O
no (0)
9. Clc1nn2nnnc2c2ccccc12
no (0)
10. O=C(Nc1cc(Cl)ccc1Cl)Nc1ccc(Cl)cc1C(=O)c1ccccc1
yes (1)

Which outcome did this test record for the compound `COC(=O)c1ccc(NCc2c(O)ccc(O)c2Br)cc1Cl` ? no (0)

Which outcome did this test record for the compound `O=[N+]([O-])c1ccc(Sc2c3ccccc3nc3ccccc23)nc1` ? yes (1)

Which outcome did this test record for the compound CCC1CN2CCc3cc(OC)c(OC)cc3C2CC1CC1c2cc(OC)c(OC)cc2CCN1C(=O)C(Cc1c[nH]c2ccccc12)NC(=O)OC(C)(C)C (configuration not stated) ? no (0)

Which outcome did this test record for the compound `CN1CC[C@@H](c2ccccc2)[C@@H](O)C1` ? no (0)

Which outcome did this test record for the compound `BrCN(CBr)c1ccc2c(c1)Cc1cc(Br)ccc1-2` ? no (0)

Which outcome did this test record for the compound CC(C)(C)OC(=O)NC(Cc1ccc(OCc2ccccc2)cc1)C(=O)NC(CCCCNC(=O)OCc1ccccc1)C(=O)ON1C(=O)CCC1=O (configuration not stated) (Boc-Tyr(Bn)-Lys(Cbz)-OSu; configuration not given here) ? no (0)

Which outcome did this test record for the compound CC(C)=CC1C(COC(=O)CCl)C1(C)C (configuration not stated) ? no (0)

Which outcome did this test record for the compound `CC(=O)OC/C=C/CCCOC(C)=O` ? no (0)

Which outcome did this test record for the compound `N#CSc1ccc(O)c2ccccc12` ? yes (1)

Which outcome did this test record for the compound CC(C(=O)c1ccc(Cl)cc1)C1OC(=O)C(Cl)=C1Cl (configuration not stated) ? no (0)

Which outcome did this test record for the compound `c1ccc(-c2c3ccccc3cc3ccc4ccccc4c23)nc1` ? no (0)

Which outcome did this test record for the compound Cc1nn(C(=O)c2ccccc2O)c2c1C(c1ccc(O)cc1O)SC(N)=N2 (configuration not stated) ? no (0)
